Where these numbers come from: paper PMC4225485

Target: T1, PHD1_(KDM5B) D308A mutant (UniProt Q9UGL1 306-360, D308A)
T1 construct: also called PHD1 D308A; source: recombinant from modified pGEX-6p-1, site-directed mutagenesis; not shown: GST, N-terminal, cleaved
T1 sequence (looked up): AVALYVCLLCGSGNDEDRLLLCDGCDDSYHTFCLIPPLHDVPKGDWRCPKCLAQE
Assay: ITC; ITC-200, 20 mmol/L Tris, 150 mmol/L NaCl, 1% Triton X-100, pH 7.5, 25°C
Conditions: both partners purified
ENDPOINT: pKd
Would you please state pKd, meaning minus log10 of the concentration in mol/L, as a bare number?

pKd lookup needed for ARTKQTARKS (histone H3 N-terminal tail, residues 1-10; also called H3K4me0; H3K4me0 peptide; source: synthetic peptide, bought: GL Biochem Ltd. (Shanghai, China)) [unmodified H3K4 peptide (residues 1-10)] , thanks.
4.38
